Reference source: PubChem BioAssay AID2060904

System: 349418-098-R-PDC complex spheroid viability
Test: Anticancer human tumor 349418-098-R-PDC patient-derived lung adenocarcinoma cell line growth inhibition [RAS]; active = viability on the fitted dose curve at most 10% of control; inactive = the rest
Conditions: second compound 0.01 µM; first compound 3.16 µM
Write down one outcome, taken from yes (1) for active, no (0) for inactive

Q: Any idea what this test logged for NC1c2ccccc2OC12CCN(c1cnc3c(N4CCCc5ncccc54)n[nH]c3n1)CC2 (stereo not given) + C=CC(=O)N1CCN(c2nc(OCC3CCCN3C)nc3c(F)c(-c4nc(N)cc(C)c4C(F)(F)F)c(Cl)cc23)C(C)C1 ?
Result: no (0)

Q: Any idea what this test logged for CCC(CC)c1cc(NC2CCC(N)C2)n2nccc2n1 (stereo not given) + C=CC(=O)N1CCN(c2nc(OCC3CCCN3C)nc3c(F)c(-c4nc(N)cc(C)c4C(F)(F)F)c(Cl)cc23)C(C)C1 ?
Result: yes (1)

Q: Any idea what this test logged for Cc1nc(N2CCC3(CC2)COC(C)C3N)c(CO)nc1Sc1ccnc(N)c1Cl (stereo not given) + C=CC(=O)N1CCN(c2nc(OCC3CCCN3C)nc3c(F)c(-c4nc(N)cc(C)c4C(F)(F)F)c(Cl)cc23)C(C)C1 ?
Result: no (0)

Q: Any idea what this test logged for CC(=O)OC12COC1CC(O)C1(C)C(=O)C(O)C3=C(C)C(OC(=O)C(O)C(NC(=O)OC(C)(C)C)c4ccccc4)CC(O)(C(OC(=O)c4ccccc4)C21)C3(C)C (stereo not given) + C=CC(=O)N1CCN(c2nc(OCC3CCCN3C)nc3c(F)c(-c4nc(N)cc(C)c4C(F)(F)F)c(Cl)cc23)C(C)C1 ?
Result: no (0)

Q: Any idea what this test logged for CC(C)NCC(C(=O)N1CCN(c2ncnc3c2C(C)CC3O)CC1)c1ccc(Cl)cc1 (stereo not given) + C=CC(=O)N1CCN(c2nc(OCC3CCCN3C)nc3c(F)c(-c4nc(N)cc(C)c4C(F)(F)F)c(Cl)cc23)C(C)C1 ?
Result: no (0)

###

Test system: 349418-098-R-PDC complex spheroid viability
Assay: Anticancer human tumor 349418-098-R-PDC cell line growth inhibition [RAS];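 note: spheroids exposed to compound for seven days before viability readout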
Conditions: second compound 0.003 µM; first compound 0.3 µM; stronger effect = lower value
measured_quantity: viability, T/C (%)
Report as a plain number; the unit % is understood.

Q: What measured viability, T/C goes with CC1(C)CCC(Nc2ncc(C(F)(F)F)c(-c3c[nH]c4c(P(C)(C)=O)c(C#N)ccc34)n2)CN1 (centres undefined) + CCn1c(-c2cccnc2C(C)OC)c2c3cc(ccc31)N1CCOC(CC(NC(=O)C(C(C)C)N(C)C(=O)C3(F)CCN(C(=O)C#CC(C)(C)N(C)C)CC3)C(=O)N3CCCC(N3)C(=O)OCC(C)(C)C2)C1 ?
Result: 8.13

Q: What measured viability, T/C goes with CCc1c2c(nc3ccc(O)cc13)-c1cc3c(c(=O)n1C2)COC(=O)[C@]3(O)CC + CCn1c(-c2cccnc2C(C)OC)c2c3cc(ccc31)N1CCOC(CC(NC(=O)C(C(C)C)N(C)C(=O)C3(F)CCN(C(=O)C#CC(C)(C)N(C)C)CC3)C(=O)N3CCCC(N3)C(=O)OCC(C)(C)C2)C1 ?
Result: 2.08

Q: What measured viability, T/C goes with CCc1c2c(nc3ccc(O)cc13)-c1cc3c(c(=O)n1C2)COC(=O)[C@]3(O)CC + CCn1c(-c2cc(N3CCN(C)CC3)cnc2C(C)OC)c2c3cc(ccc31)-c1csc(n1)CC(NC(=O)C1CC1C)C(=O)N1CCCC(N1)C(=O)OCC(C)(C)C2 ?
Result: 1.76

Q: What measured viability, T/C goes with CC1(C)CCC(Nc2ncc(C(F)(F)F)c(-c3c[nH]c4c(P(C)(C)=O)c(C#N)ccc34)n2)CN1 (centres undefined) + CCn1c(-c2cc(N3CCN(C)CC3)cnc2C(C)OC)c2c3cc(ccc31)-c1csc(n1)CC(NC(=O)C1CC1C)C(=O)N1CCCC(N1)C(=O)OCC(C)(C)C2 ?
Result: 7.95
